As shown below, each of these compounds has a reported caspase activation value.
- Experiment: caspase 3/7 activation in MEF A1-2A-BIM cells, primary screen, A1 inhibitor project, cell-based, luminescence, HTS (AID 2462)
- Particulars: Caspase-Glo 3/7 luminescence, 3 h, stronger effect = higher value, percent of clofoctol response, vehicle zero, concentration not given here
In all, about 330,000 compounds went through this assay and about 220 (0.067%) were called active. The full list was thinned out, with actives kept by preference.
Express the result in % but write the number alone.

# Compound, Measurement Unit, caspase activation
measured = [
    ("COc1ccc(C2C(C#N)=C(N)Oc3cc(N)ccc32)cc1OC (stereo not given)", "%", 0.292),
    ("C#CCOCCOCCOCCNc1nc(N2CCN(C(=O)C([C@@H](C)O)n3cc([C@@H](N)CCCCN)nn3)CC2)nc(N2CCN(C(=O)[C@H](CCCCN)n3cc(CN)nn3)CC2)n1 (stereo not given in full)", "%", 0.837),
    ("COC(=O)[C@H]1Cc2cnoc2C[C@]1(C)C(=O)O", "%", -0.157),
    ("COc1cc2c(cc1OC)C(C(=O)Nc1cc(C)c(OC)c(C)c1)CC(=O)N2 (stereo not given)", "%", 0.803),
]

Query :: // returns reported caspase activation for input CC(=O)Nc1ccc(Sc2ccccc2C(=O)N2CCCC2)cn1
Result :: 0.126
